This section presents compounds with their documented viability, T/C values.
tested on: KRAS PDC multicell spheroid viability; assay: Anticancer human tumor 825966-067-R-J1-PDC patient-derived colon carcinoma cell line growth inhibition [KRAS2]; conditions: second compound 0.1 µM; first compound 3.16 µM; stronger effect = lower value;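 note: spheroids exposed to compounds for 7 days; 100% = DMSO vehicle control viability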
Give just the number in %; leave the unit off.

| Compound | Study target | Outcome measure | Reported |
| --- | --- | --- | --- |
| CCNC(=O)CC1N=C(c2ccc(Cl)cc2)c2cc(OC)ccc2-n2c(C)nnc21 (stereo not drawn) + CC1OCC2(CCN(c3cnc(Sc4ccnc(N)c4Cl)c(N)n3)CC2)C1N | KRAS PDC multicell spheroid viability | viability, T/C | 89.9 |

In: Reported viability, T/C for COc1cc2nccc(Oc3ccc(NC(=O)C4(C(=O)Nc5ccc(F)cc5)CC4)cc3)c2cc1OC + C=CC(=O)N1CCN(c2nc(=O)n(-c3c(C)ccnc3C(C)C)c3nc(-c4c(O)cccc4F)c(F)cc23)C(C)C1 : what is it?
Out: 6.77

In: Reported viability, T/C for CC1(C)CCC(CN2CCN(c3ccc(C(=O)NS(=O)(=O)c4ccc(NCC5CCOCC5)c([N+](=O)[O-])c4)c(Oc4cnc5[nH]ccc5c4)c3)CC2)=C(c2ccc(Cl)cc2)C1 + C=CC(=O)N1CCN(c2nc(OCC3CCCN3C)nc3c2CCN(c2cccc4cccc(C)c24)C3)CC1CC#N : what is it?
Out: 9.74

In: Reported viability, T/C for Cn1nccc1Nc1nccc(-c2cc3c(s2)C(C)(C)N(CCN2CCOCC2)C3=O)n1 + C=CC(=O)N1CCN(c2nc(=O)n(-c3c(C)ccnc3C(C)C)c3nc(-c4c(O)cccc4F)c(F)cc23)C(C)C1 : what is it?
Out: 81.3

In: Reported viability, T/C for CCNC(=O)CC1N=C(c2ccc(Cl)cc2)c2cc(OC)ccc2-n2c(C)nnc21 (stereo not drawn) + COc1cc2nc(C)nc(NC(C)c3cc(N)cc(C(F)(F)F)c3)c2cc1OC1CCOC1 : what is it?
Out: 73.4

In: Reported viability, T/C for CC1OCC2(CCN(c3cnc(Sc4ccnc(N)c4Cl)c(N)n3)CC2)C1N (stereo not drawn) + CNCc1ccccc1-c1csc(C(C)Nc2nc(C)nc3cc(OC)c(OC)cc23)c1 : what is it?
Out: 101

In: Reported viability, T/C for CC1OCC2(CCN(c3cnc(Sc4ccnc(N)c4Cl)c(N)n3)CC2)C1N (stereo not drawn) + COc1cc2nc(C)nc(NC(C)c3cc(N)cc(C(F)(F)F)c3)c2cc1OC1CCOC1 : what is it?
Out: 100

In: Reported viability, T/C for CC1OCC2(CCN(c3cnc(Sc4ccnc(N)c4Cl)c(N)n3)CC2)C1N (stereo not drawn) + C=CC(=O)N1CCN(c2nc(=O)n(-c3c(C)ccnc3C(C)C)c3nc(-c4c(O)cccc4F)c(F)cc23)C(C)C1 : what is it?
Out: 94.1

Values compiled from PubChem BioAssay AID1963865.
